Exercise: state measured relative IC50 for each of the compounds provided.
test system: HS-PSS; test: relative IC50 (inflection point of fitted dose-response curve, CellTox-Green cytotoxicity, 72 h; top asymptote may be below 50%); higher = less potent

Using known records, supply relative IC50 for CC(C)C[C@H](NC(=O)[C@@H](COC(C)(C)C)NC(=O)[C@H](Cc1ccc(O)cc1)NC(=O)[C@H](CO)NC(=O)[C@H](Cc1c[nH]c2ccccc12)NC(=O)[C@H](Cc1cnc[nH]1)NC(=O)[C@@H]1CCC(=O)N1)C(=O)N[C@@H](CCCNC(=N)N)C(=O)N1CCC[C@H]1C(=O)NNC(N)=O
> 10000 nM

Output measured relative IC50 for this item: Cc1cnc(Nc2ccc(F)cc2Cl)nc1-c1c[nH]c(C(=O)N[C@H](CO)c2cccc(Cl)c2)c1 [VX-11E]
> 2500 nM

// Input: FC(F)(F)c1ccc(/C=C/c2nc(COc3ccc(CCCCn4ccnn4)cc3)co2)cc1 . Output its relative IC50 only.
> 1000 nM

Determine its reported relative IC50: Cn1nnc2c(C(N)=O)ncn2c1=O [Temozolomide]
> 100000 nM

Name the recorded relative IC50 of the compound listed here: CNC(=O)c1ccccc1Sc1ccc2c(/C=C/c3ccccn3)n[nH]c2c1
> 10000 nM

Identify measured relative IC50 associated with COc1ccccc1S(=O)(=O)Nc1ccc2c(c1)CN(C)C(=O)N2
> 10000 nM

Output measured relative IC50 for this item: CN1CC[C@@H](NC(=O)Nc2ccc(C#N)cc2)C[C@@H]1c1nc2ccccc2[nH]1
> 1000 nM

# return recorded relative IC50 for input C1=N/C2=N/c3ccc(OCCN4CCCC4)c(c3)COC/C=C/COCc3cccc(c3)C(=C1)N2
2780 nM

Look up and state reported relative IC50 for CNC(=O)c1ccc(N2C(=S)N(c3ccc(C#N)c(C(F)(F)F)c3)C(=O)C2(C)C)cc1F [Enzalutamide]
> 10000 nM

Given the compound O=C(Nc1ccc(-c2ccnc(Nc3ccc(N4CCOCC4)cc3)n2)cc1)[C@H]1CCCN1 , write its reported relative IC50.
> 10000 nM

Return the recorded relative IC50 value; entry: C=CC(=O)N1CCC(Oc2cc3c(Nc4ccc(Cl)c(Cl)c4F)ncnc3cc2OC)CC1
> 1000 nM

Tell me its relative IC50 given CN(C)CCOc1ccc(/C(=C(/CCCl)c2ccccc2)c2ccccc2)cc1 as the entry.
> 10000 nM

Specify relative IC50 for COc1cc([C@@H]2c3cc4c(cc3[C@@H](O[C@@H]3O[C@@H]5CO[C@@H](c6cccs6)O[C@H]5[C@H](O)[C@H]3O)[C@H]3COC(=O)[C@H]23)OCO4)cc(OC)c1O [Teniposide] and stop.
3010 nM

Specify measured relative IC50 for C[C@@H]1C[C@H]2O[C@@H]2/C=C\C=C\C(=O)Cc2c(Cl)c(O)cc(O)c2C(=O)O1 .
1140 nM

Complete the entry with relative IC50 for Nc1cccc2c1CN(C1CCC(=O)NC1=O)C2=O (stereo unspecified) [Lenalidomide]
> 100000 nM

Return reported relative IC50. Input compound: CC[C@@]1(O)C(=O)OCc2c1cc1n(c2=O)Cc2cc3ccccc3nc2-1
358 nM

Tell us which relative IC50 value is on record for COc1cc(O)c2c(c1)/C=C/C[C@H](O)[C@H](O)C(=O)/C=C\C[C@H](C)OC2=O
> 10000 nM

Given the compound CC1(C)CNc2cc(NC(=O)c3cccnc3NCc3ccncc3)ccc21 , write its reported relative IC50.
> 10000 nM

Fill in reported relative IC50 for this entry: CNC(=O)c1ccc(N2C(=S)N(c3cnc(C#N)c(C(F)(F)F)c3)C(=O)C23CCC3)cc1F
> 10000 nM

Look up and state reported relative IC50 for C=CC(=O)Nc1cccc(Nc2nc(Nc3ccc(N4CCN(C(C)=O)CC4)cc3OC)ncc2C(F)(F)F)c1
2980 nM

Determine its reported relative IC50: CCn1c(C(=O)N(C2CC2)C2CC2)cc2c3c(ncn3C)c(Nc3cc(C)n(C)n3)nc21
> 10000 nM

Determine its reported relative IC50: CCN(CCO)CCCOc1ccc2c(Nc3cc(CC(=O)Nc4cccc(F)c4)[nH]n3)ncnc2c1
> 1000 nM

Tell me measured relative IC50 for CS(=O)(=O)OCCCCOS(C)(=O)=O please.
> 100000 nM

Could you please provide reported relative IC50 for O=C(O)CCCc1ccc(N(CCCl)CCCl)cc1 ? Thanks!
> 10000 nM

Answer with reported relative IC50 of COc1cc(N2CCN(C)CC2)ccc1Nc1nccc(-c2cn(C)c3cnccc23)n1
2460 nM

// Input: CCNC(=O)Nc1ccc(-c2nc3c(c(N4CCOC[C@@H]4C)n2)CCN(C2COC2)C3)cc1 . Output its relative IC50 only.
> 2500 nM

State its relative IC50 for this compound: CC(=O)Nc1cccc(-n2c(=O)n(C3CC3)c(=O)c3c(Nc4ccc(I)cc4F)n(C)c(=O)c(C)c32)c1
> 250 nM

For C[C@]12CC[C@@H]3c4ccc(O)cc4C[C@@H](CCCCCCCCC[S+]([O-])CCCC(F)(F)C(F)(F)F)[C@H]3[C@@H]1CC[C@@H]2O (stereo partly specified) , write its relative IC50.
> 1000 nM

Report relative IC50, nothing else, for this compound: COc1cc(C(=O)NC2CCN(C)CC2)c(F)cc1Nc1ncc2c(n1)N(C1CCCC1)CC(F)(F)C(=O)N2C
> 2500 nM

Give recorded relative IC50. Nc1ncnc2c1nc(N)n2[C@@H]1O[C@H](CO)[C@@H](O)[C@H]1O
4130 nM

Could you please provide reported relative IC50 for C[C@]12O[C@H](C[C@]1(O)CO)n1c3ccccc3c3c4c(c5c6ccccc6n2c5c31)CNC4=O ? Thanks!
> 1000 nM

---

test system: S1507-2; experiment: drug sensitivity score (DSS, CellTox-Green cytotoxicity, 72 h) (DSS (dimensionless)); higher = more cytotoxic; extreme values may be limits of the assay
Could you label it condition met if measured drug sensitivity score is 0.08 or higher, and condition not met otherwise?

Decide: is the reported value of drug sensitivity score for Cn1c(CCCC(=O)O)nc2cc(N(CCCl)CCCl)ccc21 [Bendamustine] (max concentration tested 10000 nM) equal to or greater than 0.08?
condition not met

Test whether the compound CNC(=O)c1cc(Oc2ccc(NC(=O)Nc3cc(C(C)(C)C)nn3-c3ccc4ncccc4c3)c(F)c2)ccn1 [Rebastinib] (max concentration tested 1000 nM) records drug sensitivity score of 0.08 or higher.
condition not met

Does the compound CC(C)n1cnc2c(NCCc3ccc(O)cc3)nc(-c3csc4ccccc34)nc21 [StemRegenin 1] (max concentration tested 10000 nM) have recorded drug sensitivity score that is 0.08 or more?
condition not met

Is reported drug sensitivity score greater than or equal to 0.08 here: COc1cc2c(cc1-c1c(C)noc1C)ncc1[nH]c(=O)n([C@H](C)c3ccccn3)c12 [I-BET151] (max concentration tested 10000 nM)
condition met

Threshold query (drug sensitivity score >= 0.08) on C=CCc1cccc(/C=N/NC(=O)CN2CCN(Cc3ccccc3)CC2)c1O [PAC-1] (max concentration tested 10000 nM)
condition not met

Exam item: decide whether the reported drug sensitivity score for CNC(=O)c1cc(Oc2ccc(NC(=O)Nc3ccc(Cl)c(C(F)(F)F)c3)cc2)ccn1 [Sorafenib] (max concentration tested 1000 nM) is at least 0.08.
condition not met

Check the entry CC(C)N(CCCNC(=O)Nc1ccc(C(C)(C)C)cc1)C[C@H]1O[C@@H](n2cc(Br)c3c(N)ncnc32)[C@H](O)[C@@H]1O [SGC0946] (max concentration tested 10000 nM) : does drug sensitivity score equal or exceed 0.08?
condition met

Decide: is the reported value of drug sensitivity score for CN(C)CCN1C(=O)c2cccc3cc(N)cc(c23)C1=O [Amonafide] (max concentration tested 10000 nM) equal to or greater than 0.08?
condition met

Check if drug sensitivity score >= 0.08 (inclusive). Item: Cc1cc(C(C)Nc2ccccc2)c2nc(N3CCOCC3)cc(=O)n2c1 (configuration not stated) [TGX-221] (max concentration tested 10000 nM)
condition not met

State whether the measured drug sensitivity score reaches 0.08, counting equality as reaching it, for C[C@@H]1CCN(C(=O)CC#N)C[C@@H]1N(C)c1ncnc2[nH]ccc12 [Tofacitinib] (max concentration tested 5000 nM)
condition met

Is drug sensitivity score at least 0.08? Consider Cc1sc2c(c1C)C(c1ccc(Cl)cc1)=N[C@@H](CC(=O)OC(C)(C)C)c1nnc(C)n1-2 [(+)JQ1] (max concentration tested 10000 nM)
condition met

Exam item: decide whether the reported drug sensitivity score for CNC(=O)c1ccc(N2C(=S)N(c3ccc(C#N)c(C(F)(F)F)c3)C(=O)C23CCC3)cc1F [RD162] (max concentration tested 10000 nM) is at least 0.08.
condition met
